# pKd per entry
Biological target: YesU (Bacillus subtilis, UniProt O31524)
Sequence (O31524 1-220): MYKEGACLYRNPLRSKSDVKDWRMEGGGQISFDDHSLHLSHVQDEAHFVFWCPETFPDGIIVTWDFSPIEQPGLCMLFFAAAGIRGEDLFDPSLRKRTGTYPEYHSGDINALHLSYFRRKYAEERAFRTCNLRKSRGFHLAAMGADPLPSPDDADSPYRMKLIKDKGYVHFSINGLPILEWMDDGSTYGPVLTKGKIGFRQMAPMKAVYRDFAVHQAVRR
The read-out pKd is expressed as -log10 of concentration in moles per litre.

Sample CC(=O)N[C@H]1C(O)O[C@H](CO)[C@@H](O[C@@H]2O[C@@H](C)[C@@H](O)[C@@H](O)[C@@H]2O)[C@@H]1O[C@@H]1O[C@H](CO)[C@H](O)[C@H](OS(=O)(=O)O)[C@H]1O (some centres unmarked) [8A, SO3-3Galβ1-3(Fucα1-4)GlcNAc] ; pKd observed: 5.68

Sample CC(=O)N[C@H]1C(O)O[C@H](CO)[C@@H](O[C@@H]2O[C@@H](C)[C@@H](O)[C@@H](O)[C@@H]2O)[C@@H]1O[C@@H]1O[C@H](CO)[C@H](O)[C@H](O)[C@H]1O (some centres unmarked) [7J, Galβ1-3(Fucα1-4)GlcNAc] ; pKd observed: 6.38

====

# pKd per entry
Biological target: YesU (Bacillus subtilis, UniProt O31524)
Sequence (O31524 1-220): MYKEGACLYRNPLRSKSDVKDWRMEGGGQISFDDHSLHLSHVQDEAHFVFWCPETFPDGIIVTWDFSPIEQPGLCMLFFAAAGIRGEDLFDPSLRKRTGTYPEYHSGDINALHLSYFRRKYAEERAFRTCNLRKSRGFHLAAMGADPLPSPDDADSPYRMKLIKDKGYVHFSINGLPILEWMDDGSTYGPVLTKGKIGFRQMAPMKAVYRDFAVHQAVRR
The read-out pKd is expressed as -log10 of concentration in moles per litre.

These recorded examples may help you get a feel for the data.
1. C[C@@H]1O[C@@H](O[C@H]2C(O)O[C@H](CO)[C@H](O)[C@@H]2O)[C@@H](O)[C@H](O)[C@@H]1O (some centres unmarked) :: 6.44
2. C[C@@H]1O[C@@H](O[C@H]2C(O)O[C@H](CO)[C@H](O)[C@@H]2O[C@H]2O[C@H](CO)[C@H](O)[C@H](O)[C@H]2O)[C@@H](O)[C@H](O)[C@@H]1O (some centres unmarked) :: 6.72
3. CC(=O)N[C@H]1[C@@H](O[C@H]2[C@@H](O)[C@@H](CO)OC(O)[C@@H]2O[C@@H]2O[C@@H](C)[C@@H](O)[C@@H](O)[C@@H]2O)O[C@H](CO)[C@H](O)[C@@H]1O (some centres unmarked) :: 5.12
4. CC(=O)NC1C(OC2C(O)C(COC3OC(CO)C(OC4OC(CO)C(O)C(OC5OC(CO)C(OC6OC(CO)C(O)C(O)C6O)C(O)C5NC(C)=O)C4O)C(OC4OC(C)C(O)C(O)C4O)C3NC(C)=O)OC(OC3C(CO)OC(O)C(O)C3O)C2O)OC(CO)C(OC2OC(CO)C(O)C(O)C2O)C1O (centres unmarked) :: 6.62
5. CC(=O)N[C@H]1[C@H](O[C@H]2[C@@H](O)[C@@H](CO)O[C@@H](O[C@H]3[C@H](O)[C@@H](O)C(O)O[C@@H]3CO)[C@@H]2O)O[C@H](CO)[C@@H](O)[C@@H]1O[C@@H]1O[C@H](CO)[C@H](O)[C@H](O)[C@H]1O[C@@H]1O[C@@H](C)[C@@H](O)[C@@H](O)[C@@H]1O (some centres unmarked) :: 5.91

Sample CC(=O)N[C@H]1C(O)O[C@H](CO)[C@@H](O[C@@H]2O[C@H](CO)[C@H](O)[C@H](O)[C@H]2O)[C@@H]1O[C@@H]1O[C@@H](C)[C@@H](O)[C@@H](O)[C@@H]1O (some centres unmarked) ; pKd observed: 6.82

Sample CC(=O)N[C@H]1C(O)O[C@H](CO)[C@@H](O[C@@H]2O[C@H](CO)[C@H](O)[C@H](O)[C@H]2O[C@@H]2O[C@@H](C)[C@@H](O)[C@@H](O)[C@@H]2O)[C@@H]1O (some centres unmarked) ; pKd observed: 6.47

Sample CC(=O)N[C@H]1C(O)O[C@H](CO)[C@@H](O[C@@H]2O[C@H](CO)[C@H](O)[C@H](O)[C@H]2O[C@@H]2O[C@@H](C)[C@@H](O)[C@@H](O)[C@@H]2O)[C@@H]1O[C@@H]1O[C@@H](C)[C@@H](O)[C@@H](O)[C@@H]1O (some centres unmarked) ; pKd observed: 6.47

Origin of the recorded values: paper PMC6120924
